The reported measurements were obtained from the supplement of paper PMC9170038.

system: MS2 coat protein; assay: apparent KD of MS2 coat protein; higher = weaker reporter binding; conditions: Eterna round: R107; input ligand: tryptophan 2.4 mM
MEASUREMENT_NAME: apparent KD of MS2 coat protein

Any idea what its apparent KD of MS2 coat protein is? The sequence is CUAUAUUAUAGAAGGAGCGUCGAAAAUGGGUAAACAUGAGGAUCACCCAUGUAAAGGGAACGACAGGUAGGUCGCUAUAAUAUAG [AstromonsSSArgB#13]
195 nM

For every item in the list below, what is its measured apparent KD of MS2 coat protein?
1. GCACGGUAGUCGGCCGCCACUGAAACAUGUGUCUACAUGAGGAUCACCCAUGUGGGUGUGUUUUGUAGGACCGGGACAAGACCCG [#11 Same State - Tryptophan B]
2. GGGAAAGAAUGUGAUACCAGAGAACCGGUCUCCAUCAAUAUACAUGAGGAUCACCCAUGUCUCCCUUGGCAGCACCAUCAUCAAA [Exclusion Theophylline B GF 27]
3. ACAUGAGGAUCACCCAUGUAGUGGCACGAUACCAGCUGAUCCCGUGGCCCUUGGCAGCGUCCGGUGUGGUGCGCCGGGUUGGAGC [BBBMULLIN]
4. AGUAGUUGACAAAAGUCAGCUACAAUUGAAGGAGCGGGAUCCUUCCCAGGUAGGUCGCAAUAACAUGAGGAUCACCCAUGUCAAA [ArgAS 4 #BothOrNeither #OpenEnded]
5. GCGCGGCGAGUGCGGCGUGUUCCGCUCCGUCGAGGACCGGUACGGCCGCCACUCGACAUGAGGAUCACCCAUGUCGCCGCGCGCG [Exclusion - Tryptophan A Attempt #3]
6. ACGAACGCACCUGAGGAUCACCCGGGUGAUACCAGCCUGGAAACAGGCCCUUGGCAGCACCUAAAAUAAAGGUAACGUUCGAAUA [TheoAX9 #MicroSwitchBubble #AlternativeMS2]
7. AUCGUACCUAGUGAUACCAGCAAGUGAUCAUAACAUGAGGAUCACCCAUGUAAUCAGUGAUGCCCUUGGCAGCAUAAUCGUUACA [Same State - Theophylline B (Freestyle 1)]

["17.2 nM", "22 nM", "48.9 nM", "20.3 nM", "13.5 nM", "303 nM", "173 nM"]

* * *

system: MS2 coat protein; experiment: apparent KD of MS2 coat protein; designed switch direction (-1 OFF switch, 1 ON switch): -1; higher = weaker reporter binding; conditions: Eterna round: R95; input ligand: microRNA oligo, concentration not stated
Category | rule: reported apparent KD of MS2 coat protein within range, see low (below 0.03 µM), medium (0.03 µM to below 0.08 µM), high (0.08 µM or more)

Study these solved cases before continuing.
Into which bin does this sequence go? GAUUAUGCGAGCUUUAGGGACAUGAGGAUCACCCAUGUUCGUCUUAUUGGUCUGGGUACACUGACAUACCUAAAUCU [JMF 72] (puzzle: Sensor v3, turn-off variant 1)
medium

Into which bin does this sequence go? UUUUAACAUGAGGAUCACCCAUGUGAGGAUAUCGAAAUUUAUAUUAAUAUUAAUUAUUCGAGAAGGCACAUUUU [JMF 29] (puzzle: Exclusion 1)
high

Into which bin does this sequence go? UGUGCGUAUGUGAGGAUAUGCUGGUCCUUGGAUCAGCAGAAGGCACAUGAGGAUCACCCAUGUGGUGUCGUACA [salish99_Bmod_Ex4_007] (puzzle: Brourd's mod of Exclusion 4)
high

Into which bin does this sequence go? AAGAAACAUGAGGAUCACCCAUGUGAGGAUAUGAUCAAGAAAAGAAAAGAAAGAAGAUUCAGAAGGCACAAAGG [salish99-ex1_r3_056] (puzzle: Exclusion 1)
high

Into which bin does this sequence go? AAGAAACAUGAGGAUCACCCAUGUGAGGAUAUGACGAAGAAAAGAAAAGAAAGAAGACUCAGAAGGCACAAAGG [salish99-ex1_r3_076] (puzzle: Exclusion 1)
low

Continuing:
Into which bin does this sequence go? AAAAAACAAGGAUAUACGCAGGAGGGUUGUCUUAAUUUUUGACAUGAGGAUCACCCAUGUAGAAGGUGUUAAAA [JR_Exclusion2_Sub013] (puzzle: Exclusion 2)
high

Into which bin does this sequence go? CUUUUGUGAGGAUAUUAGUAGUAAUUAAAUAAAAUUACUACUGAGAAGGCACAUGAGGAUCACCCAUGUUCCUC [salish99_ex4_r3_053] (puzzle: Exclusion 4)
medium

Into which bin does this sequence go? GCUGCGCGAGGAUAUGCGGUUUGUGCUUUGGCCCGUGGCGUACAUGAGGAUCACCCAUGUAGAAGGCGUGUGGG [Apr-15 SS2-53] (puzzle: Exclusion 2)
low

Into which bin does this sequence go? AGUACUAACACGAAAGUGUUUGUACAAUAAGCUUGUGAAACAUGAGGAUCACCCAUGUCCUCAUAAGCUCGUCUUAU [salish99_TOv2_r3_035] (puzzle: Sensor v3, turn-off variant 2)
high

Into which bin does this sequence go? CAAAUCUGAGGAUAUCGAUUUUUGUACAUGAGGAUCACCCAUGUCCUUUUUAUUAAAUCCCGAGAAGGCAGUGUAU [JR_E5_Sub096] (puzzle: Exclusion 5)
low

Into which bin does this sequence go? AGUAACAGAGGAUAUACUGUUUUAUGUGUUUAUUGUUUUGAACAUGAGGAUCACCCAUGUAGAAGGCUGAAUAA [JMF 94] (puzzle: Exclusion 2)
low

Into which bin does this sequence go? AUACCACGAGGAUAUCGUCUAUUUCACAUGAGGAUCACCCAUGUUAUCUUUGUUUUGUUUCGAGAAGGCGUGUUUU [JR_E5_Sub078] (puzzle: Exclusion 5)
low

Into which bin does this sequence go? CUCUUGGCAGGAUAUGCUCUUUUAGACAUGAGGAUCACCCAUGUGCUCAUUCCUUCUUUUGCAGAAGGGCCUUAAC [JR_E5_Sub048] (puzzle: Exclusion 5)
medium

Into which bin does this sequence go? AAUAACAGAGGAUAUACUAUUUUAUGUGUUUGUUGUUUUAAACAUGAGGAUCACCCAUGUAGAAGGCUGAAUGA [JMF 61] (puzzle: Exclusion 2)
low

Into which bin does this sequence go? AAUCCACAUGAGGAUCACCCAUGUGAGGAUAUGAUACUAUGUACUUCGGUACAUAGUAUCAGAAGGCAUAUGAA [Ex1-3: 49] (puzzle: Exclusion 1)
low

Into which bin does this sequence go? AUGAGGUUAGGAUAUACAUGAGGAUCACCCAUGUUGGAGAAGGAAGUGUAAGUAGCGAGUAGAAGGAACGGAGC [JR_Exclu3_Sub060] (puzzle: Exclusion 3)
medium

Into which bin does this sequence go? AAUAACAGAGGAUAUACUAUUUUAUGUGUUUGUUGUUUUAAACAUGAGGAUCACCCAUGUAGAAGGCUGAUUAA [JMF 46] (puzzle: Exclusion 2)
medium

* * *

tested on: MS2 coat protein; test: apparent KD of MS2 coat protein; designed switch direction (-1 OFF switch, 1 ON switch): 1; higher = weaker reporter binding; conditions: input ligand: none
Respond with y for apparent KD of MS2 coat protein values of 40 nM and above, n for values below.

Study these solved cases before continuing.
Tell me whether apparent KD of MS2 coat protein is at least 40 nM here: AAAAUGAGUAUAUGAAAACAAGCUUUUUAACAUGAGGAUCACCCAUGUACUCGUCUUAUAAGCAGUCGAAAGACUGC [hsa-mir-208a sensor: 77] (Eterna round: R96, puzzle: Sensor for hsa-mir-208a)
y

Tell me whether apparent KD of MS2 coat protein is at least 40 nM here: UGAAUGGUGAUAGGAUAUACAUGAGGAAUCCUCGUAGAAGGAUCACGACAUGAGGAUCACCCAUGUAGCCGUCCGUAGACGGCU [salish99_SSNG1_r04_003] (Eterna round: R96, puzzle: Same State NG 1)
y

Tell me whether apparent KD of MS2 coat protein is at least 40 nM here: GUGCUCGUGUAAGGAUAUGCAGCCGUUUCGGCUGCAGAAGGUACUAUAAUACAUGAGGAUCACCCAUGUCUCUUUUGUUUGGUG [salish99_SSNG1_r04_907] (Eterna round: R96, puzzle: Same State NG 1)
y

Continuing:
Tell me whether apparent KD of MS2 coat protein is at least 40 nM here: UAGUGCAUUAGAGGAUAUUCUUACGACACGAGUAAGACAUGAGGAUCACCCAUGUCGUGACAUGGGAAGAAGGCUGAUGUGCUA [Omei SS(NG)2 Bv6] (Eterna round: R96, puzzle: Same State NG 2)
n

Tell me whether apparent KD of MS2 coat protein is at least 40 nM here: CUAGCGCAUGCAGGAUAUCUGGUGUAUGCCUCGAGAUAACAUGAGGAUCACCCAUGUCCGCUCAAAGAGAAGGGCAUGCAAAUG [Eternabot solution 8] (Eterna round: R96, puzzle: Same State NG 2)
y

Tell me whether apparent KD of MS2 coat protein is at least 40 nM here: UUAAUCUGAACAUGAGGAUCACCCAUGUAUCUUAUUUUAGGACAGGAUAUAGAUGUUAAGAAUUACUAGAAGGGUCAGUAUAUU [JR_SSNG3_Sub011] (Eterna round: R96, puzzle: Same State NG 3)
n

Tell me whether apparent KD of MS2 coat protein is at least 40 nM here: GAGGAACAGGCCAACAUGAGGAUCACCCAUGUCCUCGCAUUUCAGGAUAUCUGGAAGAAGAAGAAAGAGAAGGGAAGGUGAAGC [AK SSNG3-V2-34.1] (Eterna round: R96, puzzle: Same State NG 3)
y

Tell me whether apparent KD of MS2 coat protein is at least 40 nM here: UUUACUUUCAUAGGAUAUCAUGCGAAAAUUGCGUGAGAAGGGUGCACACUGUCUUUCUCGGAGUACAUGAGGAUCACCCAUGUG [SameState NG1 #67] (Eterna round: R96, puzzle: Same State NG 1)
y
